Would you kindly list CC50 at 24 h for each of these compounds?
# TEST_METHOD_NOTES: Cytotoxicity against human MCF10A cells after 24 hrs by MTT assay
# Type: cell-based, MCF-10A
# CONDITION: read-out: LC50

Given item "COc1ccc(Cc2nnc(SCC(=O)Nc3ccc(Cl)cc3)n2Cc2ccccc2)cc1" , the value recorded as its CC50 at 24 h is > 100 µM

Lab book: CC50 at 24 h of "COc1ccc(Cc2nnc(SCC(=O)c3ccc(Cl)cc3)n2-c2ccccc2)cc1" noted as > 100 µM

Documented CC50 at 24 h of "COc1ccc(Cc2nnc(SCC(=O)Nc3ccc(Cl)cc3)n2-c2ccccc2)cc1" : > 100 µM

So, "COc1ccc(Cc2nnc(SCC(=O)c3ccc(Cl)cc3)n2Cc2ccccc2)cc1" ? Its CC50 at 24 h was > 100 µM

For reference, reported CC50 at 24 h for "COc1ccc(Cc2nnc(SCC(=O)c3ccc(Cl)cc3)n2-c2ccc(C)cc2)cc1" stands at > 100 µM
